Cited source: BigSolDB 2.1

Recorded conditions: in 1,4-dioxane, 338.15 K
Measurement name: solubility (mole fraction)
Number only, please.

Qu. // fetch solubility (mole fraction) given entry O=C(O)c1ccc(C(=O)O)o1
Ans. 0.00827

###

Recorded conditions: in diglyme, 303.15 K
Measurement name: solubility (mole fraction)
Number only, please.

Qu. // fetch solubility (mole fraction) given entry O=C(O)c1ccc(C(=O)O)o1
Ans. 0.00653

###

Recorded conditions: in diglyme, 333.15 K
Measurement name: solubility (mole fraction)
Number only, please.

Qu. // fetch solubility (mole fraction) given entry O=C(O)c1ccc(C(=O)O)o1
Ans. 0.00887

###

Recorded conditions: in diglyme, 323.15 K
Measurement name: solubility (mole fraction)

Qu. // fetch solubility (mole fraction) given entry O=C(O)c1ccc(C(=O)O)o1
Ans. 0.00801

###

Recorded conditions: in THF, 318.15 K
Measurement name: solubility (mole fraction)
Number only, please.

Qu. // fetch solubility (mole fraction) given entry O=C(O)c1ccc(C(=O)O)o1
Ans. 0.0108

###

Recorded conditions: in diglyme, 343.15 K
Measurement name: solubility (mole fraction)

Qu. // fetch solubility (mole fraction) given entry O=C(O)c1ccc(C(=O)O)o1
Ans. 0.00965

###

Recorded conditions: in diglyme, 308.15 K
Measurement name: solubility (mole fraction)

Qu. // fetch solubility (mole fraction) given entry O=C(O)c1ccc(C(=O)O)o1
Ans. 0.00704

###

Recorded conditions: in 1,2-dimethoxyethane, 338.15 K
Measurement name: solubility (mole fraction)
Number only, please.

Qu. // fetch solubility (mole fraction) given entry O=C(O)c1ccc(C(=O)O)o1
Ans. 0.00528

###

Recorded conditions: in diglyme, 348.15 K
Measurement name: solubility (mole fraction)
Number only, please.

Qu. // fetch solubility (mole fraction) given entry O=C(O)c1ccc(C(=O)O)o1
Ans. 0.0103

###

Recorded conditions: in 1,2-dimethoxyethane, 328.15 K
Measurement name: solubility (mole fraction)

Qu. // fetch solubility (mole fraction) given entry O=C(O)c1ccc(C(=O)O)o1
Ans. 0.00458

###

Recorded conditions: in THF, 293.15 K
Measurement name: solubility (mole fraction)
Number only, please.

Qu. // fetch solubility (mole fraction) given entry O=C(O)c1ccc(C(=O)O)o1
Ans. 0.00772

###

Recorded conditions: in THF, 298.15 K
Measurement name: solubility (mole fraction)

Qu. // fetch solubility (mole fraction) given entry O=C(O)c1ccc(C(=O)O)o1
Ans. 0.00826

###

Recorded conditions: in 1,4-dioxane, 318.15 K
Measurement name: solubility (mole fraction)
Number only, please.

Qu. // fetch solubility (mole fraction) given entry O=C(O)c1ccc(C(=O)O)o1
Ans. 0.00521

###

Recorded conditions: in 1,4-dioxane, 333.15 K
Measurement name: solubility (mole fraction)
Number only, please.

Qu. // fetch solubility (mole fraction) given entry O=C(O)c1ccc(C(=O)O)o1
Ans. 0.00739

###

Recorded conditions: in 1,2-dimethoxyethane, 308.15 K
Measurement name: solubility (mole fraction)
Number only, please.

Qu. // fetch solubility (mole fraction) given entry O=C(O)c1ccc(C(=O)O)o1
Ans. 0.00372

###

Recorded conditions: in 1,4-dioxane, 313.15 K
Measurement name: solubility (mole fraction)

Qu. // fetch solubility (mole fraction) given entry O=C(O)c1ccc(C(=O)O)o1
Ans. 0.00481

###

Recorded conditions: in 1,4-dioxane, 328.15 K
Measurement name: solubility (mole fraction)
Number only, please.

Qu. // fetch solubility (mole fraction) given entry O=C(O)c1ccc(C(=O)O)o1
Ans. 0.00631

###

Recorded conditions: in 1,4-dioxane, 308.15 K
Measurement name: solubility (mole fraction)
Number only, please.

Qu. // fetch solubility (mole fraction) given entry O=C(O)c1ccc(C(=O)O)o1
Ans. 0.00458

###

Recorded conditions: in THF, 328.15 K
Measurement name: solubility (mole fraction)
Number only, please.

Qu. // fetch solubility (mole fraction) given entry O=C(O)c1ccc(C(=O)O)o1
Ans. 0.0122

###

Recorded conditions: in 1,4-dioxane, 343.15 K
Measurement name: solubility (mole fraction)

Qu. // fetch solubility (mole fraction) given entry O=C(O)c1ccc(C(=O)O)o1
Ans. 0.00886

###

Recorded conditions: in diglyme, 338.15 K
Measurement name: solubility (mole fraction)
Number only, please.

Qu. // fetch solubility (mole fraction) given entry O=C(O)c1ccc(C(=O)O)o1
Ans. 0.00937

###

Recorded conditions: in 1,2-dimethoxyethane, 318.15 K
Measurement name: solubility (mole fraction)
Number only, please.

Qu. // fetch solubility (mole fraction) given entry O=C(O)c1ccc(C(=O)O)o1
Ans. 0.0041
